Give Cell Viability (Average, two targets) for every item shown.
System: mammalian cells
Experiment: Arrayed SSAP library screening, cell viability by live cell counts via flow cytometry
Type: cell-based
Answer using only a numeral; do not append any unit.

### Prompt Bench note: what Cell Viability (Average, two targets) did SSAP_192: SEQ ID NO: 361; Streptococcus pyogenes (protein, Streptococcus pyogenes) SDLSVAAAAAKTQPTMKDLVEAQLPAIERQLGGAMNSAAFVRAVLSEIGKSPDLMAADPKTLLGGVMLAAQLRLEIGSGLGEFYLTPRKERGRQICLPIIGYQGLIKLALRSEFVMNVQAFLVRQGDQFSYGANAERGMFYDWVPQDFEETRDWIGVVATARMRSGGTTWVYLTRTQVIDRRPSYWNSTPWKTNEDEMVKKTAVRALAKFLPKSTDLGRALEADEAKVQTLRGLDEVEVTRLDDEADTVVVQEQNPMSRTPEEQAEDAEAQR show?
### Response 1.071

### Prompt Bench note: what Cell Viability (Average, two targets) did SSAP_191: SEQ ID NO: 360 in b312 (Table 9 prints 354); Microbacterium sp. K41 (protein, listed as Microbacterium sp.) SKDLSTAAAAAKSQPTMKDLVEAQLPAIERQLGGAMNSDAFVRAVLSEIGKSPDLMNADPKTLLGGVMLAAQLRLEIGSGLGEFYLTPRKDRGRQICLPIIGYQGMIKLALRSEYVLNVQAFLVREGDDFTYGGNSERGMFYDWTPKDFEESRPWIGVVATAKMRGGGTTWVYLTRTQVIDRRPSYWASTPWKTNEDEMVKKTAVRALAKFLPKSTDLGRALEADEAKVQHLKGVDEVQVTRLDDDAETFVVQEQDPMSRTPEEQAEDEANR show?
### Response 1.129

### Prompt Bench note: what Cell Viability (Average, two targets) did SSAP_29: SEQ ID NO: 198 (protein) STALATLAGKLAERVGMDSVDPQELITTLRQTAFKGDASDAQFIALLIVANQYGLNPWTKEIYAFPDKQNGIVPVVGVDGWSRIINENQQFDGMDFEQDDESCTCRIYRKDRNHPICVTEWMDECRRAPFKTREGREITGPWQSHPKRMLRHKAMIQCARLAFGFAGIYDKDEAERIVENTAYTTERQPERDITPVNEETMSEINALLTSMEKTWDDDLLPLCSQIFRRYIRASSELSQAEAEKVLGFLKQKATEQKVAA show?
### Response 1.131

### Prompt Bench note: what Cell Viability (Average, two targets) did SSAP_20: SEQ ID NO: 189; CK3_26380 butyrate-producing bacterium SS3/4 (protein, butyrate-producing bacterium SS3/4) ENATAVQQAESQGTQDFSAPVKHNTDFSLGIFGSSDNFLMATQMAKAFASSTIVPKEYQGNFANGLVAMDIANRLKTSPFMVMQNLDVIQGRPAWRATFLIAMINRSKKYDIELQFEEKRDKNGKPYSCTCWTTKDGRKVTGIEVTMDMAEAEGWTKKNGSKWITMPQVMLRYRAASFFSRMNCPELSNGLYTTDEVYEMADSEYKVYNLEDEVKRDLAQNANKEEFVAPPNETAPESESKGSEPLDPAVENQKSGDTPDWMKPETM show?
### Response 1.174
